These measurements were taken from PubChem BioAssay (NCATS).

# procedure text: qHTS of pediatric cancer cell lines to identify multiple opportunities for drug repurposing: Primary screen for NB1643 cells (AID 1347099);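 note: plate controls were DMSO neutral control for no effect and bortezomib positive control for full effect; nearly all actives have a fitted effect of over 50% in size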
# condition notes: NB1643 neuroblastoma viability, CellTiter-Glo luminescence, 48 h; series mostly up to 46 µM
Inconclusive results are not listed. Active and inactive are the calls of the source. Calls come from the whole dose curve; as a rule, active = well fitted cell-killing curve with a large enough effect; inconclusive = small, poorly fitted or top-dose-only effect; inactive = no such curve, though single readings can be large or run the other way.

| compound | outcome |
| --- | --- |
| C1=CC2C3C=CC(C3)C2C1 (stereo not given) | inactive |
| C=C(C)C(=O)OCC(O)CO (stereo not given) | inactive |
| CN(C)[C@@H]1C(=O)C(C(N)=O)=C(O)[C@@]2(O)C(=O)C3=C(O)c4c(O)cccc4C[C@H]3C[C@@H]12 | inactive |
| CCC(C(=O)OCCN1CCOC(c2ccccc2)C1C)c1ccccc1 (stereo not given) | inactive |
| CC(CC(C#N)(c1ccccc1)C(C)C)N(C)C (stereo not given) | inactive |
| CC(=O)OCC(=O)Nc1cc(C#N)cc(NC(=O)COC(C)=O)c1Cl | inactive |
| CCN1CCCC1CN (stereo not given) | inactive |
| CC(=O)OCC(=O)[C@@]1(O)[C@H](OC(C)=O)C[C@H]2[C@@H]3CCC4=CC(=O)C=C[C@]4(C)[C@@]3(F)[C@@H](O)C[C@@]21C | inactive |
| O=C1[C@@H]2[C@H]3CC[C@H](C3)[C@@H]2C(=O)N1CCCCN1CCN(c2ncccn2)CC1 | inactive |
| C/C(=N\O)[C@@H](C)NCC(C)(C)CN[C@H](C)/C(C)=N/O | inactive |

* * *

# System: HaCat
# procedure text: Cytotoxic Profiling of Annotated Libraries Using Quantitative High-Throughput Screening (AID 1296008); note: % is set by controls: 0 for no effect and ±100 for the full control effect; nearly all actives have a fitted effect of over 60% in size
# condition notes: Five cell lines viability, CellTiter-Glo ATP luminescence, 48-72 h; active compounds read low
Records with an inconclusive call do not appear. *1 amine or outer side, *2 acyl side, *3 side chain or, on linkers, in order; H or OH if unused. Where a SMILES comes first, the peptide text is derived from it. Bridges are numbered along the chain shown (N, C = ends). [ ]: non-standard residue; d: D form. The star is where a group is joined. ξ: configuration not given here. X10 = NC1=NCCC(C(N[*:1])C(=O)[*:2])N1; ΔAla(3-NHCONH2) = NC(=O)NC=C(N)C(=O)O; ξβ3hOrn = NCCCC(N)CC(=O)*; Dap = NC[CH](N)C(=O)O
experimental endpoint: max response (%)

| compound | number |
| --- | --- |
| CN(CC1(C)CCCO1)S(=O)(=O)c1ccc(Cl)c(S(N)(=O)=O)c1 (stereo not drawn) | -20.1 |
| O=C1NC(c2ccccc2)(c2ccccc2)C(=O)N1COP(=O)(O)O | -3.47 |
| O=C(O)C1CCC1 | 1.71 |
| C/C(=C1\CCOC(=O)S1)N(C=O)Cc1cnc(C)nc1N | 0.182 |
| CCS(=O)(=O)c1ccc(OC)c(C(=O)OC)c1 | 4.82 |
| Cc1sccc1Br | 1.43 |
| NCCCC(N)CC(=O)NCC1NC(=O)C(CO)NC(=O)C(N)CNC(=O)C(C2CCN=C(N)N2)NC(=O)C(=CNC(N)=O)NC1=O (stereo not drawn) (H-[Dap]S[Dap](ξβ3hOrn)[ΔAla(3-NHCONH2)][X10]; lactam 1-C; configuration not given here) | -10.9 |
| Cc1ccc2c(Cl)cc(Cl)c(O)c2n1 | -10 |
| CC(=O)OC[C@H]1O[C@@H](OC(C)=O)[C@H](OC(C)=O)[C@@H]1OC(C)=O | 2.57 |
| CCCc1ccc(OCC(=O)N2CCN(C(=O)COc3ccc(CCC)cc3OC)CC2)c(OC)c1 | 5 |
| Clc1ccc2c(c1)Nc1ccccc1S2 | -13.4 |
| CC(C)CCCC(C)NCCC(C)C (stereo not drawn) | 3.37 |
| CC1(C)O[C@@H]2C[C@H]3[C@@H]4C[C@H](F)C5=CC(=O)C=C[C@]5(C)[C@@]4(F)[C@@H](O)C[C@]3(C)[C@]2(C(=O)CO)O1 | 1.62 |
| Cc1[nH]cnc1-c1ccc(Cl)cc1 | -6.75 |
| Nc1c(NC/C=C\COc2cc(CN3CCCCC3)ccn2)c(=O)c1=O | -11 |
| CC[C@@H]([C@H](C)O)n1ncn(-c2ccc(N3CCN(c4ccc(OC[C@@H]5CO[C@@](Cn6cncn6)(c6ccc(F)cc6F)C5)cc4)CC3)cc2)c1=O | -3.01 |
| CC(C(O)c1ccccc1)N(C)CCOC(c1ccccc1)c1ccccc1 (stereo not drawn) | 2.35 |
| Cc1cc(=O)oc2cc(O[C@@H]3SC[C@@H](O)[C@H](O)[C@H]3O)ccc12 | 4.75 |
| COc1cc(/C=C/C(N)=O)cc(OC)c1OC | 2.61 |
| O=C(O)CNC(=O)CNC(=O)CNC(=O)CSC(=O)c1ccccc1 | -1.1 |
| O=C(NO)c1ccccc1 | 4.14 |
| NC(=O)NS(=O)(=O)c1ccc(Cl)cc1 | 0.84 |
| CC(CC1c2ccccc2CCc2ccccc21)CN(C)C (stereo not drawn) | 1.42 |
| Cc1nn(-c2ccccc2)c(C)c1/C=N/N1CCN(Cc2ccccc2)CC1 | -14.9 |
| C[C@]12CCC(=O)C=C1CC[C@@H]1[C@@H]2[C@@H](O)C[C@@]2(C)[C@H]1CC[C@]2(O)C(=O)COC(=O)CCC(=O)O | -3.29 |
| CC1(C)S[C@@H]2[C@H](NC(=O)C(c3ccccc3)S(=O)(=O)O)C(=O)N2[C@H]1C(=O)O (stereo partly drawn) | -6.19 |
| O=C(OCC(O)CO)c1ccccc1Nc1ccnc2c(C(F)(F)F)cccc12 (stereo not drawn) | -6.27 |
| CCOc1c(N2CCOCC2)cnn(C)c1=O | -2.94 |
| Cc1nc2n(c(=O)c1CCN1CCC(C(=O)c3ccc(F)cc3)CC1)CCS2 | 1.44 |
| C/C(=N\O)[C@@H](C)NCC(C)(C)CN[C@H](C)/C(C)=N/O | -13.6 |
| c1ccc(C(O[C@H]2CCCN(CCc3ccc4c(c3)OCO4)C2)c2ccccc2)cc1 | 0.583 |
| CC(=O)[C@H]1CC[C@H]2[C@@H]3C=CC4=CC(=O)CC[C@@]4(C)[C@@H]3CC[C@]12C | -26.7 |
| Brc1ccc([C@H]2CN3CCSC3=N2)cc1 | -7.1 |
| CCCCOCCOC(=O)c1cccnc1 | -21.3 |
| CN1CCC(N(Cc2cccs2)c2ccccc2)CC1 | -4.44 |
| CCCC(=O)c1cc(O)c(O)cc1O | -3.56 |
| O=C(O)CCC(=O)OC[C@@H](NC(=O)C(Cl)Cl)[C@H](O)c1ccc([N+](=O)[O-])cc1 | 0.154 |
| CC1CC(=O)NN=C1c1ccc(NCC(C)(C)NCC(O)COc2cc(Cl)ccc2C#N)cc1 (stereo not drawn) | -12.2 |
| CCOC(=O)c1ccc(OCCN2C[C@H](O)[C@@H](O)[C@H](O)[C@H]2CO)cc1 | -6.67 |
| Nc1nnnn1-c1ccccc1 | -26.2 |
| CC(C)(c1ccc(O)cc1)c1ccc(O)cc1 | -13.2 |
| CCOC(=O)C(=O)CCCCCCl | -12.5 |
| COc1cc(C(=O)OC(COCCC(C)C)CN2CCOCC2)cc(OC)c1OC (stereo not drawn) | -1.64 |
